Reference for the values: patent US20240148821A1

TARGET OR SYSTEM: protein-protein interaction between Kras and SOS1 (biotin-tagged human Kras loaded with GDP, His-tagged human SOS1) (Homo sapiens (Human), UniProt P01116, G12D)
TEST NAME: Protein-protein interaction inhibition between Kras and SOS1 (KrasG12D-SOS PPI) using AlphaScreen
Type: biochemical
MEASUREMENT PARAMETERS: AlphaScreen; biotin-tagged human Kras loaded with GDP, His-tagged human SOS1; read-out: KRAS G12D-SOS PPI IC50
Bridge positions count the residues as written; N and C are the ends. Square brackets hold non-standard residues; d marks the D form. Peptide text beside a SMILES is read from it. hPhe(3-Cl-4-CF3) = N[C@@H](CCc1ccc(C(F)(F)F)c(Cl)c1)C(=O)O; NMePhe(4-CF3) = CN[C@@H](Cc1ccc(C(F)(F)F)cc1)C(=O)O; NMePhe(4-Me) = CN[C@@H](Cc1ccc(C)cc1)C(=O)O; NMeGly(cPent) = CN[C@H](C(=O)O)C1CCCC1; NMehLeu = CN[C@@H](CCC(C)C)C(=O)O; NMeI = CC[C@H](C)[C@H](NC)C(=O)O; NMeD = CN[C@@H](CC(=O)O)C(=O)O; NMeL = CN[C@@H](CC(C)C)C(=O)O; d(β3hA) = C[C@@H](N)CC(=O)O; NMeA = CN[C@@H](C)C(=O)O; Ac5c = NC1(C(=O)O)CCCC1; Aze = O=C(O)[C@@H]1CCN1; Sar = CNCC(=O)O
METRIC: IC50 (nM)

MOLECULE	METRIC	VALUE
CC[C@H](C)[C@@H]1NC(=O)[C@H](CCC(C)C)N(C)C(=O)C[C@@H](C(=O)N(C)C)N(C)C(=O)[C@H]([C@@H](C)CC)N(C)C(=O)C2(CCCC2)NC(=O)[C@@H]2CCCN2C(=O)[C@H](CCc2ccc(C(F)(F)F)c(Cl)c2)NC(=O)CN(C)C(=O)[C@H](Cc2ccc(C)cc2)N(C)C(=O)[C@@H]2CCN2C(=O)[C@H](C)N(C)C1=O [Compound 1042] ([NMehLeu]I[NMeA][Aze][NMePhe(4-Me)][Sar][hPhe(3-Cl-4-CF3)]P[Ac5c][NMeI][NMeD]-NMe2; lactam N-11)	IC50	0.72
CC[C@H](C)[C@@H]1NC(=O)[C@H](CC(C)C)N(C)C(=O)C[C@@H](C)NC(=O)[C@H](C2CCCC2)N(C)C(=O)C2(CCCC2)NC(=O)[C@@H]2CCCN2C(=O)[C@H](CCc2ccc(C(F)(F)F)c(Cl)c2)NC(=O)CN(C)C(=O)[C@H](Cc2ccc(C(F)(F)F)cc2)N(C)C(=O)[C@@H]2CCN2C(=O)CN(C)C1=O [Compound 1496] (cyclo([Ac5c][NMeGly(cPent)][d(β3hA)][NMeL]I[Sar][Aze][NMePhe(4-CF3)][Sar][hPhe(3-Cl-4-CF3)]P))	IC50	2

* * *

TARGET OR SYSTEM: protein-protein interaction between Kras and SOS1 (biotin-tagged human Kras loaded with GDP, His-tagged human SOS1) (Homo sapiens (Human), UniProt P01116, G12D)
TEST NAME: Protein-protein interaction inhibition between Kras and SOS1 (KrasG12D-SOS PPI) using AlphaScreen;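 further: kras produced in E. coli, Ni-coupled donor beads and streptavidin acceptor beads, excitation 680 nm with emission detected at 520–620 nm via singlet oxygen transfer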
Format: biochemical
MEASUREMENT PARAMETERS: AlphaScreen; biotin-tagged human Kras loaded with GDP, His-tagged human SOS1; read-out: KRAS G12D-SOS PPI IC50
Bridge positions count the residues as written; N and C are the ends. Square brackets hold non-standard residues; d marks the D form. Peptide text beside a SMILES is read from it. * marks the point of attachment. hPhe(3-Cl-4-CF3) = N[C@@H](CCc1ccc(C(F)(F)F)c(Cl)c1)C(=O)O; NMeGly(cPent) = CN[C@H](C(=O)O)C1CCCC1; NMeCha = CN[C@@H](CC1CCCCC1)C(=O)O; NMeD = CN[C@@H](CC(=O)O)C(=O)O; NMeL = CN[C@@H](CC(C)C)C(=O)O; Chg = N[C@H](C(=O)O)C1CCCCC1; NMeV = CN[C@H](C(=O)O)C(C)C; d(β3hA) = C[C@@H](N)CC(=O)O; NMeA = CN[C@@H](C)C(=O)O; Piperidide = C1CCN(*)CC1; Ac5c = NC1(C(=O)O)CCCC1; Aze = O=C(O)[C@@H]1CCN1; Sar = CNCC(=O)O
Documented IC50 across a set of compounds

COMPOUND	IC50, nM
CC[C@H](C)[C@@H]1NC(=O)[C@H](C)N(C)C(=O)C[C@@H](C)NC(=O)[C@H](C2CCCC2)N(C)C(=O)C2(CCCC2)NC(=O)[C@@H]2CCCN2C(=O)[C@H](CCc2ccc(C(F)(F)F)c(Cl)c2)NC(=O)CN(C)C(=O)[C@H](CC2CCCCC2)N(C)C(=O)[C@@H]2CCN2C(=O)[C@H](C)N(C)C1=O [Compound 1491] (cyclo([Ac5c][NMeGly(cPent)][d(β3hA)][NMeA]I[NMeA][Aze][NMeCha][Sar][hPhe(3-Cl-4-CF3)]P))	3.7
CC(C)C[C@H]1C(=O)N[C@@H](C2CCCCC2)C(=O)N(C)[C@@H](C)C(=O)N2CC[C@H]2C(=O)N(C)[C@@H](CC2CCCCC2)C(=O)N(C)CC(=O)N[C@@H](CCc2ccc(C(F)(F)F)c(Cl)c2)C(=O)N2CCC[C@H]2C(=O)NC2(CCCC2)C(=O)N(C)[C@@H](C(C)C)C(=O)N(C)[C@H](C(=O)N2CCCCC2)CC(=O)N1C [Compound 642] ([NMeL][Chg][NMeA][Aze][NMeCha][Sar][hPhe(3-Cl-4-CF3)]P[Ac5c][NMeV][NMeD]-Piperidide; lactam N-11)	54
